The entries below are paired with their reported Emax.
Biological target: SIRT1 (Homo sapiens)
Sequence (Q96EB6 1-747): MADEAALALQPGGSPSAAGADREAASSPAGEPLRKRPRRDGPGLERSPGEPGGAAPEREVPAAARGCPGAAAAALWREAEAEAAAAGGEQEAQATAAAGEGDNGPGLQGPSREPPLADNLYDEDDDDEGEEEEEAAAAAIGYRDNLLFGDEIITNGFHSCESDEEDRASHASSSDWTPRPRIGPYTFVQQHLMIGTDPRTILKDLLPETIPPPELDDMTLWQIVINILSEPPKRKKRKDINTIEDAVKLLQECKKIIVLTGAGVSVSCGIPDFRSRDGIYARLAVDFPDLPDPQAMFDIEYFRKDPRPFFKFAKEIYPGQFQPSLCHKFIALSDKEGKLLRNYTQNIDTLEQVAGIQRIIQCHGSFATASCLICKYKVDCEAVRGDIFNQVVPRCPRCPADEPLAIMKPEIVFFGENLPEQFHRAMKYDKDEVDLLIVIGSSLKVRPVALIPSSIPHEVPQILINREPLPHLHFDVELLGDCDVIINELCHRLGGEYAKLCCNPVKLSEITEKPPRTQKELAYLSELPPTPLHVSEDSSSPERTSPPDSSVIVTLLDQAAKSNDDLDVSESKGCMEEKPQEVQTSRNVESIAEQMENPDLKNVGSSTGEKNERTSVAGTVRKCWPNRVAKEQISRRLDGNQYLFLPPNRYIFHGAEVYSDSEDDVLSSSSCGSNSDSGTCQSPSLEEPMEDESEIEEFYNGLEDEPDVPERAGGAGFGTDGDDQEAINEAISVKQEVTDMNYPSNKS
Assay: Mass spectrometry based assay to identify modulators of SIRT1 activity (deacetylation of p53-based acetylated peptide substrate)
Type: biochemical
Settings: 25 min, SIRT1 activation, read-out: % FOLD ACT. (percent maximum fold activation)

The cases that follow already have their Emax on record.
- O=C(Nc1cnc(OC[C@H](O)CO)cn1)N1CCCOc2ccc(-c3cccc(Cl)c3)nc21 [Compound 878]: > 200%
- Cc1csc(NC(=O)N2CCCOc3ccc(-c4cccc(Cl)c4)nc32)n1 [Compound 607]: > 200%
- Cn1cc2ccc(NC(=O)N3CCCOc4ccc(-c5cccc(Cl)c5)nc43)cc2n1 [Compound 883]: > 200%
- Cc1cncc(NC(=O)N2CCOc3ccc(-c4cccc(N5CCCC5)c4)nc32)c1 [Compound 644]: > 200%
- Cc1ccc(NC(=O)N2CCOc3ccc(-c4cccc(C(F)(F)F)c4)nc32)c(C)n1 [Compound 552]: > 200%

Using the record for Cc1cc(NC(=O)N2CCOc3ccc(-c4c(C)noc4C)nc32)cc(C)n1 [Compound 573] , state its measured Emax.
> 200%

Using the record for O=C(Nc1cccc(OCC(O)CO)n1)N1CCOc2cnc(-c3cccc(C(F)(F)F)c3)nc21 (centres unmarked) [Compound 717] , state its measured Emax.
≤ 200%

Using the record for CN(C)c1nc(-c2cccc(F)c2)nc2c1OCCN2C(=O)Nc1ccncc1 [Compound 736] , state its measured Emax.
≤ 200%

====

Target: SIRT1 (Homo sapiens, UniProt Q96EB6)
Sequence (Q96EB6 1-747): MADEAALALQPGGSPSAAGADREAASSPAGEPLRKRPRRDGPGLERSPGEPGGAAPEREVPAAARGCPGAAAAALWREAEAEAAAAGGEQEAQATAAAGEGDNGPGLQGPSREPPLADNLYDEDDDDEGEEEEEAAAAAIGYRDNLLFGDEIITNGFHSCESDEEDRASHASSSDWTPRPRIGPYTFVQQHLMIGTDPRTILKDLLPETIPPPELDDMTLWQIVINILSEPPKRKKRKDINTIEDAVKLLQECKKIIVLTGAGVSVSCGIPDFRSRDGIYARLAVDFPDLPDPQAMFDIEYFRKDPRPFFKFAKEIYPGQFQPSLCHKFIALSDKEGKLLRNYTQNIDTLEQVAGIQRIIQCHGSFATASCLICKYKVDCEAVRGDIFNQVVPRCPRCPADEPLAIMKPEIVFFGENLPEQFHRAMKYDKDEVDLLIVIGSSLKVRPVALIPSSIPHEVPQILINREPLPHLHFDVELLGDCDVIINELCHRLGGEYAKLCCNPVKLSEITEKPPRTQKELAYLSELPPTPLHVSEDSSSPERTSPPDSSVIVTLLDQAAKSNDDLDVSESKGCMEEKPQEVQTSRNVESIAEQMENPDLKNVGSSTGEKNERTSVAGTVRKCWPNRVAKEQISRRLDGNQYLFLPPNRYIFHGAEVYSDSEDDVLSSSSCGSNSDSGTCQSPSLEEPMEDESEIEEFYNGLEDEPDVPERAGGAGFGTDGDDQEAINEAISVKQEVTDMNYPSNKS
Experiment: Mass spectrometry based assay to identify modulators of SIRT1 activity (deacetylation of p53-based acetylated peptide substrate)
Format: biochemical
Conditions: SIRT1 activation
Text: A mass spectrometry based assay was used to identify modulators of SIRT1 activity. The mass spectrometry based assay utilizes a peptide having 20 amino acid residues as follows: Ac-EE-K(biotin)-GQSTSSHSK(Ac)NleSTEG-K(5TMR)-EE-NH2 (SEQ ID NO: 1) wherein K(Ac) is an acetylated lysine residue and Nle is a norleucine. The peptide is labeled with the fluorophore 5TMR (excitation 540 nm/emission 580 nm) at the C-terminus. The sequence of the peptide substrate is based on p53 with several modifications. […]
VALUE TYPE: EC1.5

The cases that follow already have their EC1.5 on record.
- O=C(Nc1ccc(F)cn1)N1CCOc2ccc(-c3cccc(C(F)(F)F)c3)nc21: A (EC1.5<1.0 μM)
- Cc1cncc(NC(=O)N2CC(C)(C)Oc3ccc(-c4cccc(F)c4)nc32)c1: A (EC1.5<1.0 μM)
- Cc1cncc(NC(=O)N2CCCc3ccc(-c4cccc(Cl)c4)nc32)c1: A (EC1.5<1.0 μM)
- Cc1cc(C)nc(NC(=O)N2CCOc3ccc(-c4cccc(C(F)(F)F)c4)nc32)c1: A (EC1.5<1.0 μM)
- Cc1cc(NC(=O)N2CCCc3ccc(-c4cccc(F)c4)nc32)cc(C)n1: A (EC1.5<1.0 μM)

Using the record for O=C(Nc1ccnc(OCC(O)CO)n1)N1CCCc2ccc(-c3cccc(C(F)(F)F)c3)nc21 (centres unmarked) , state its measured EC1.5.
A (EC1.5<1.0 μM)

Using the record for Cc1cncc(NC(=O)N2CCCOc3ccc(-c4cccc(N5CCCC5)c4)nc32)c1 , state its measured EC1.5.
B (EC1.5 1-25 μM)

Using the record for Cc1csc(NC(=O)N2CC(C)(C)Oc3ccc(-c4cccc(F)c4)nc32)n1 , state its measured EC1.5.
A (EC1.5<1.0 μM)

Using the record for O=C(Nc1ccnc(N2CCC2)c1)N1CCCOc2ccc(-c3cccc(N4CCCC4)c3)nc21 , state its measured EC1.5.
A (EC1.5<1.0 μM)

Using the record for O=C(Nc1cncc(OCC(O)CO)n1)N1CCCc2ccc(-c3cccc(C(F)(F)F)c3)nc21 (centres unmarked) , state its measured EC1.5.
A (EC1.5<1.0 μM)

These measurements were taken from patent US9556201B2.
